# System: U2OS
# MEASUREMENT NOTES: Multiplex assay against U2OS
# Assay type: toxicity, cell-based
# PARTICULARS: human, 12 h, 1 µM, compound concentration 1 uM, replicate 2
Heads up, the class ranges for Population Membrane Permeable-Phenotype (%) are L (below 6%), M (6% to below 10%), H (10% or more)

Past entries and their recorded results:
>  <COMPOUND>
Cn1cc(C(=O)OCC2CCN(CCNS(C)(=O)=O)CC2)c2ccccc21

>  <TARGET DESC>
U2OS

>  <ANSWER LABEL>
H

$$$$
>  <COMPOUND>
Nc1nc(CC(=O)Nc2ccc(CCNC[C@H](O)c3ccccc3)cc2)cs1

>  <TARGET DESC>
U2OS

>  <ANSWER LABEL>
L

$$$$
>  <COMPOUND>
COc1cc(C(=O)N2CC[C@@H](O)[C@@H](N)C2)cc2nc(-c3cc4ccccc4n3CC3CC3)n(C)c12.Cl

>  <TARGET DESC>
U2OS

>  <ANSWER LABEL>
H

$$$$
>  <COMPOUND>
CCCCC[C@H](O)/C=C/[C@H]1[C@H](O)CC(=O)[C@@H]1CCCCCCC(=O)O

>  <TARGET DESC>
U2OS

>  <ANSWER LABEL>
M

$$$$
>  <COMPOUND>
CN(C)C(=O)Cn1cc(-c2ccc(-c3nnc4ccccn34)cc2)cn1

>  <TARGET DESC>
U2OS

>  <ANSWER LABEL>
L

$$$$

Prompt: Returns: class label. Input: "CC(C)(O)C(=O)N1CCN(c2ccc(C(F)(F)F)c(C3=C(c4c[nH]c5ccccc45)C(=O)NC3=O)c2)CC1"
Response: L

Prompt: Returns: class label. Input: Cl.Cl.OCCOCCN1CCN(C(c2ccccc2)c2ccc(Cl)cc2)CC1 (stereo not given) [HYDROXYZINE HYDROCHLORIDE]
Response: M

Prompt: Returns: class label. Input: "COc1cc(Nc2ncc3c(n2)-c2ccc(Cl)cc2C(c2c(F)cccc2OC)=NC3)ccc1C(=O)O"
Response: M

Prompt: Returns: class label. Input: "Cc1cc(NC(=O)NCCN2CCC(O)(Cc3ccccc3)CC2)c2ccccc2n1"
Response: L

Prompt: Returns: class label. Input: CCC(=O)OCC(=O)[C@@]1(OC(=O)CC)[C@@H](C)C[C@H]2[C@@H]3CCC4=CC(=O)C=C[C@]4(C)[C@@]3(Cl)[C@@H](O)C[C@@]21C [BECLOMETHASONE DIPROPIONATE]
Response: H

Prompt: Returns: class label. Input: "N[C@](CC1c2ccccc2Oc2ccccc21)(C(=O)O)[C@H]1C[C@@H]1C(=O)O"
Response: L

Prompt: Returns: class label. Input: "Cc1cc(=O)n(C)c2cc(N3C(=O)CC[C@H](NS(=O)(=O)CC(C)C)[C@H]3c3ccc(Cl)cc3)ccc12"
Response: L

Prompt: Returns: class label. Input: "COc1ccc2[nH]c(I)c(CCNC(C)=O)c2c1"
Response: L

Prompt: Returns: class label. Input: Cc1ccc(OCC(O)C(C)NC(C)C)c2c1CCC2.Cl (stereo not given)
Response: M

* * *

# System: Fibroblast
# MEASUREMENT NOTES: Multiplex assay against human fibroblast
# Format: toxicity, cell-based
# PARTICULARS: 12 h, 1 µM, compound concentration 1 uM, replicate 2
MEASUREMENT KIND: Population Mitochondria Different-Phenotype (%)
Numbers only, in %.

These solved cases illustrate the format of a correct answer.
>  <COMPOUND>
CCCCC[C@H](O)/C=C/[C@H]1[C@H](O)CC(=O)[C@@H]1CCCCCCC(=O)O [ALPROSTADIL]

>  <RECORDED RESULT>
2

$$$$
>  <COMPOUND>
Cc1cc(-c2ccc3c(c2)CC[C@H]3N2CC3(CCN(C(=O)Cc4cn5cc(C)sc5n4)CC3)C2)ncn1 [PF-5190457]

>  <RECORDED RESULT>
0

$$$$
>  <COMPOUND>
Cn1cc(C(=O)OCC2CCN(CCNS(C)(=O)=O)CC2)c2ccccc21

>  <RECORDED RESULT>
1

$$$$
>  <COMPOUND>
COCCn1c(C)c(C)s/c1=N\C(=O)C1C(C)(C)C1(C)C

>  <RECORDED RESULT>
5

$$$$
>  <COMPOUND>
CC(C)C[C@H](CO)Nc1nc(S[C@@H](C)c2ccccc2)nc2nc(N)sc12 [AZD-8797]

>  <RECORDED RESULT>
6

$$$$
>  <COMPOUND>
CC(F)(F)CN1CCOc2c(nn(-c3ccccc3Cl)c2-c2ccc(Cl)cc2)C1=O

>  <RECORDED RESULT>
10

$$$$
>  <COMPOUND>
COc1ccc2c(c1OCc1ccccc1)C[C@@H](C(=O)O)N(C(=O)C(c1ccccc1)c1ccccc1)C2 [OLODANRIGAN]

>  <RECORDED RESULT>
5

$$$$
>  <COMPOUND>
CC(C)(O)C(=O)N1CCN(c2ccc(C(F)(F)F)c(C3=C(c4c[nH]c5ccccc45)C(=O)NC3=O)c2)CC1

>  <RECORDED RESULT>
5

$$$$

Now take the following compound into account.
Prompt: Fill blank: measured Population Mitochondria Different-Phenotype (%) of the compound COc1ccc2[nH]c(I)c(CCNC(C)=O)c2c1 [IODOMELATONIN] is ____.
Response: 3
